These entries and their values trace back to patent US9242966B2.

TEST_SYSTEM: human KV 1.5 (Homo sapiens)
Construct: expressed in transfected cells; host or cells: mammalian L-929 cells (mouse fibroblast line)
Sequence (P22460 whole entry): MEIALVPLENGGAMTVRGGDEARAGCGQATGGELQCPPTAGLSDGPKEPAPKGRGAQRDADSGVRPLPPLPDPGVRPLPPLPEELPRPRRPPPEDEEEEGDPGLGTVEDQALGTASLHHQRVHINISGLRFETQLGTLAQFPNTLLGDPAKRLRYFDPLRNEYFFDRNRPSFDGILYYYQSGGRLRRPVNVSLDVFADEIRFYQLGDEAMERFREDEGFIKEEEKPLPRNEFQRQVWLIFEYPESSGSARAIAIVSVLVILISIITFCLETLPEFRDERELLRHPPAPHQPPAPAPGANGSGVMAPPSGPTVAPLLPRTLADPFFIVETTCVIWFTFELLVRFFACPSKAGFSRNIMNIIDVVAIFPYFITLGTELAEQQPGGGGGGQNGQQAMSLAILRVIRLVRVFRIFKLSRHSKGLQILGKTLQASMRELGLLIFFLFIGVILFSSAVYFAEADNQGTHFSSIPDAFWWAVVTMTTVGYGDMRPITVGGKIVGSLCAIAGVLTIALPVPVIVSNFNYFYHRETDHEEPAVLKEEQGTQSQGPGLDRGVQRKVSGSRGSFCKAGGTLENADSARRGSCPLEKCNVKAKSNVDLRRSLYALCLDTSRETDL
EXPERIMENT_NOTES: Block of IKur current in patch clamped L-929 cells expressing human Kv1.5
Type: cell-based
MEASUREMENT_SETUP: L929, 0.3 μM; patch clamped mammalian L-929 cells stably expressing human Kv1.5 (IKur); read-out: KV1_5% Inh L929 @0.3 μM
EXPERIMENTAL_READOUT: inhibition at 0.3 µM (%)

Below are worked cases with known answers.
Nc1cncc(-c2nnc(NCc3ccccn3)c3c(-c4ccccc4)cccc23)c1
87.1
NS(=O)(=O)c1cncc(-c2nnc(NCc3ncccc3F)c3c(-c4ccccc4)cccc23)c1
78.6
CS(=O)(=O)Nc1cccc(NC(=O)c2cncc(-c3nnc(NCc4ccccn4)c4c(-c5ccccc5)cccc34)c2)c1
71
CS(=O)(=O)Nc1cncc(-c2nnc(NCc3ccccc3)c3c(-c4ccccc4)cccc23)c1
77.3
CC(=O)Nc1ccc(-c2nnc(NCc3ccccc3)c3c(-c4ccccc4)cccc23)cn1
97.9

1: CC(C)CC(=O)Nc1cncc(-c2nnc(NCc3ccccn3)c3c(-c4ccccc4)cccc23)c1
2: CC(C)(C)Oc1cc(-c2nnc(NCc3ccccc3)c3c(-c4ccccc4)cccc23)ccn1
Enquiry: Lower value of inhibition at 0.3 µM belongs to which: 1 or 2 ? Answer = label.
Return: 2
(2: 43%, 1: 92.5%)

I: O=C(NCC(O)CO)c1cncc(-c2nnc(NCc3ccccn3)c3c(-c4ccccc4)cccc23)c1 (stereo not shown)
II: CC(C)(Nc1nnc(-c2cncc(S(N)(=O)=O)c2)c2cccc(-c3ccccc3)c12)c1ccccn1
Enquiry: Lower value of inhibition at 0.3 µM belongs to which: I or II ? Answer = label.
Return: I

A: NS(=O)(=O)c1cncc(-c2nnc(NCc3ccccc3)c3c(-c4ccc(F)cc4)cccc23)c1
B: NC(=O)c1cncc(-c2nnc(NCc3ccccn3)c3c(-c4ccccc4)cccc23)c1
Enquiry: Of A and B , which one carries the higher reported inhibition at 0.3 µM? Answer = label.
Return: B
